Kindly supply the reported Unordered values for the records listed here.
- tested target: BSA (Bos taurus)
- Construct: purchased Millipore Sigma-Aldrich
- Sequence (P02769 25-607): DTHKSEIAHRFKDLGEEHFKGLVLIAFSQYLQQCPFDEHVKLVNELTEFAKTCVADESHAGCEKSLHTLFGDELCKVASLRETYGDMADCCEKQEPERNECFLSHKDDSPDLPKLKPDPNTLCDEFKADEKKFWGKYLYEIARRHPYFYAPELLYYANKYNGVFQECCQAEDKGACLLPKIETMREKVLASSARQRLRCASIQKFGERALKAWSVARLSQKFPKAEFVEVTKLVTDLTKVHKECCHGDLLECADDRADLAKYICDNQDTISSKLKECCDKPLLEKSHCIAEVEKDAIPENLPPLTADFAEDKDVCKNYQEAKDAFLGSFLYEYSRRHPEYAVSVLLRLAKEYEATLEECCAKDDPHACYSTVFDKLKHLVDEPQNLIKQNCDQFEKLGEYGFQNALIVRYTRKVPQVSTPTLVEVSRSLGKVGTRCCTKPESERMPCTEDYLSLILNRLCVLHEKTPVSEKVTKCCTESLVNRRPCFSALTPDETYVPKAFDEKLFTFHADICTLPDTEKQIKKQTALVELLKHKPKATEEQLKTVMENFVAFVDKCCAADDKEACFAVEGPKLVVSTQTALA
- protocol: Far-UV CD secondary structure of BSA (CONTIN-LL deconvolution)
- Type: physicochemical, bovine
- Design: unit not given here
- condition label: 1.0 mg/mL BSA, 1 mM component, 25 °C
Answer with a bare number; do not write a unit.

INPUT: Observed Unordered on BSA (Bos taurus) for C[N+](C)(C)CCO.O=S(=O)([O-])C(F)(F)C(F)(F)C(F)(F)C(F)(F)F [[N1112(OH)][C4F9SO3]] , please.
OUTPUT: 0.185

INPUT: Follow-up item: CCn1cc[n+](C)c1.O=S(=O)([O-])C(F)(F)C(F)(F)C(F)(F)C(F)(F)F
OUTPUT: 0.226

INPUT: Here is the next compound: OC[C@H]1O[C@@](CO)(O[C@H]2O[C@H](CO)[C@@H](O)[C@H](O)[C@H]2O)[C@@H](O)[C@@H]1O
OUTPUT: 0.198

INPUT: // repeat for C[N+](C)(C)CCO.C[N+](C)(C)CCO.O=P([O-])(O)O.O=P([O-])(O)O [[N1112(OH)][H2PO4]] and report
OUTPUT: 0.242

INPUT: Then CCCCn1cc[n+](C)c1.O=S(=O)([O-])C(F)(F)F [[C4C1Im][CF3SO3]] ?
OUTPUT: 0.208
